Values were extracted from patent US12281162.

biological target: T1, human G-protein-coupled receptor family C group 5 member D (GPRC5D) (human, UniProt Q9NZD1 1-345); experiment: FACS, CHO-K1/human GPRC5D
T1 construct: whole, on cells; also called human GPRC5D protein
T1 sequence (Q9NZD1 whole entry): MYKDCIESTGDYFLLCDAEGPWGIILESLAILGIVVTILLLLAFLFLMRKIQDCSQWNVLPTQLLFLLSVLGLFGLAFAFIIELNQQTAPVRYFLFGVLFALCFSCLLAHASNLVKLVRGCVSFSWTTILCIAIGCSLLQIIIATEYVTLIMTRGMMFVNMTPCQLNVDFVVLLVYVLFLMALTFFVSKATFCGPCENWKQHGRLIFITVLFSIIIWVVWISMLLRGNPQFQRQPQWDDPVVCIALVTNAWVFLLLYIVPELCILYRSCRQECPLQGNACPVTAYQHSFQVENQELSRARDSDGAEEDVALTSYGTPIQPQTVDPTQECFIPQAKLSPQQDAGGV
REPORTED_ENDPOINT: LogEC50

Measured LogEC50, 6-H3L3 (antibody, V domains shown, humanized 6G10D9, VH v3 x VL v3) VH: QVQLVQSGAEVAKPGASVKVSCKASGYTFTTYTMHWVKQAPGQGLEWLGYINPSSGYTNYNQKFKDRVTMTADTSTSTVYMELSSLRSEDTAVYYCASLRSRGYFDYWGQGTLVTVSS VL: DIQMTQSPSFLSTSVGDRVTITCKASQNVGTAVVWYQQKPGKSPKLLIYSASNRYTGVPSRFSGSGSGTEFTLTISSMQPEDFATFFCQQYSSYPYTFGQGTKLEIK : 1.41
